src = paper PMC6776562

experiment: In vitro metabolic stability in monkey liver microsomes; assay type: in vitro ADME
READOUT_LABEL: CLint scaled (mL/min/kg)
Write the number in mL/min/kg without appending the unit.

Form: molecule = O=C(c1ccc(F)cc1)C1CCN(CCn2c(=O)[nH]c3ccccc3c2=O)CC1 [Ketanserin, reference compound] ; CLint scaled = 111

====

assay: In vitro blood-brain barrier permeability assay; assay type: in vitro ADME; conditions: dog, MDCK-MDR1, A-B, 37 °C, MDR-MDCK
READOUT_LABEL: Papp A→B at 90 min, 5 μmol/L (×10⁻⁶ cm/s)
Write the number in ×10⁻⁶ cm/s without appending the unit.

Form: compound = COCCc1ccc(OCC(O)CNC(C)C)cc1 (stereo not shown) [Metoprolol, reference compound] ; Papp A→B at 90 min, 5 μmol/L = 40.5
